- ASSAY_REMARKS: Solubility in PBS
- Type: physicochemical
Readings of Solubility for the listed molecules
REPORTED_METRIC: Solubility (µM)

CC(=O)N1CCC[C@]12CC=CCCCC1(CCCC=CCCCOC(=O)N3CC[C@@](C(=O)N[C@@H](Cc4ccccc4)C(=O)N[C@@H](Cc4csc5ccccc45)C(=O)N[C@@H](Cc4c[nH]cn4)C(N)=O)(C3)NC(=O)[C@H](CC(N)=O)NC(=O)[C@H](Cc3ccccc3)NC(=O)[C@H](C)NC(=O)[C@H](C)NC(=O)[C@H](CC(=O)O)NC(=O)[C@H](CC(=O)O)NC1=O)NC(=O)[C@H](CC(C)(C)C)NC(=O)[C@H](CC(=O)O)NC2=O (stereo partly drawn) = 50
CC(=O)N1CCC[C@]12CC=CCCCC1(CCCC=CCCCOC(=O)N3CC[C@@](C(=O)N[C@@H](Cc4ccccc4)C(=O)N[C@@H](Cc4csc5ccccc45)C(=O)N[C@H](C(N)=O)[C@@H](C)O)(C3)NC(=O)[C@H](CC(C)C)NC(=O)[C@H](Cc3ccccc3)NC(=O)[C@H](C)NC(=O)[C@H](C)NC(=O)[C@H]([C@@H](C)O)NC(=O)[C@H](CC(N)=O)NC1=O)NC(=O)[C@H](CC(C)(C)C)NC(=O)[C@H](CC(=O)O)NC2=O (single isomer, unassigned) [I-1300] = 10
CC(=O)N1CCC[C@]12CC=CCCCC1(CCCC=CCCCCCC[C@@](C)(C(=O)N[C@@H](Cc3ccccc3)C(=O)N[C@@H](Cc3csc4ccccc34)C(=O)N[C@@H](Cc3ccco3)C(N)=O)NC(=O)[C@H](CCC(N)=O)NC(=O)[C@H](Cc3ccccc3)NC(=O)[C@H](C)NC(=O)[C@H](C)NC(=O)[C@H](CCC(=O)O)NC(=O)[C@H](CC(=O)O)NC1=O)NC(=O)[C@H](C)NC(=O)[C@H](CC(=O)O)NC2=O (stereo partly drawn) = 50

---

- ASSAY_REMARKS: CHI Log D procedure
- Assay type: physicochemical
- EXPERIMENTAL_CONTEXT: pH 7.4, CHI Log D
REPORTED_METRIC: chromatographic logD

CC(=O)N1CCC[C@]12CC=CCCCC1(CCCC=CCCCCCC[C@@](C)(C(=O)N[C@@H](Cc3ccccc3)C(=O)N[C@@H](Cc3ccc4ccccc4c3)C(N)=O)NC(=O)[C@H](C(C)C)NC(=O)[C@H](Cc3ccccc3)NC(=O)[C@H](C)NC(=O)[C@H](C)NC(=O)[C@H](CCC(=O)O)NC(=O)[C@H](CC(=O)O)NC1=O)NC(=O)[C@H](C)NC(=O)[C@H](CC(=O)O)NC2=O (some centres unmarked) = 2.43
CC(=O)N1CCC[C@]12CC=CCCCC1(CCCC=CCCCCCC[C@@](C)(C(=O)N[C@@H](Cc3ccccc3)C(=O)N[C@@H](Cc3c[nH]c4ccccc34)C(=O)N[C@@H](CCC(N)=O)C(N)=O)NC(=O)[C@H](C(C)C)NC(=O)[C@H](Cc3ccccc3)NC(=O)[C@H](C)NC(=O)[C@H](C)NC(=O)[C@H](Cc3ccc4ccccc4c3)NC(=O)[C@H](CC(=O)O)NC1=O)NC(=O)[C@H](C)NC(=O)[C@H](CC(=O)O)NC2=O (some centres unmarked) = 3.04
COc1cccc(C[C@@H]2NC(=O)[C@H](C)NC(=O)[C@H](C)NC(=O)[C@H](CC(=O)O)NC(=O)[C@H](CC(=O)O)NC(=O)C3(CCCC=CCCCOC(=O)N4CC[C@@](C(=O)N[C@@H](Cc5ccccc5Cl)C(=O)N[C@@H](Cc5csc6ccccc56)C(=O)N[C@@H](CCC(N)=O)C(N)=O)(C4)NC(=O)[C@H](CC(C)C)NC2=O)CCCC=CC[C@]2(CCCN2C(C)=O)C(=O)N[C@@H](CC(=O)O)C(=O)N[C@@H](CC(C)(C)C)C(=O)N3)c1 (some centres unmarked) = 2.31
CC(=O)N1CCC[C@]12CC=CCCCC1(CCCC=CCCCOC(=O)N3CC[C@@](C(=O)N[C@@H](Cc4ccsc4)C(=O)N[C@@H](Cc4csc5ccccc45)C(=O)N[C@@H](Cc4c[nH]cn4)C(N)=O)(C3)NC(=O)[C@H](CC(N)=O)NC(=O)[C@H](Cc3ccccc3)NC(=O)[C@H](C)NC(=O)[C@H](C)NC(=O)[C@H](CC(N)=O)NC(=O)[C@H](CC(=O)O)NC1=O)NC(=O)[C@H](CC(C)(C)C)NC(=O)[C@H](CC(=O)O)NC2=O (some centres unmarked) = 2.3
CC(=O)N1CCC[C@]12CC=CCCCC1(CCCC=CCCCOC(=O)N3CC[C@@](C(=O)N[C@@H](Cc4ccsc4)C(=O)N[C@@H](Cc4csc5ccccc45)C(=O)N[C@@H](CCC(N)=O)C(N)=O)(C3)NC(=O)[C@H](CC(N)=O)NC(=O)[C@H](Cc3cscn3)NC(=O)[C@H](C)NC(=O)[C@H](C)NC(=O)[C@H](CC(=O)O)NC(=O)[C@H](CC(=O)O)NC1=O)NC(=O)[C@H](CC(C)(C)C)NC(=O)[C@H](CC(=O)O)NC2=O (some centres unmarked) = 1.9

---

Examples of compounds with documented IC50 follow.
- STUDY_SYSTEM: full-length beta-Catenin (Uniprot ID P35222) (Homo sapiens, UniProt P35222)
- Construct: 10 nM full-length beta-Catenin (Uniprot ID P35222)
- Sequence (P35222 whole entry): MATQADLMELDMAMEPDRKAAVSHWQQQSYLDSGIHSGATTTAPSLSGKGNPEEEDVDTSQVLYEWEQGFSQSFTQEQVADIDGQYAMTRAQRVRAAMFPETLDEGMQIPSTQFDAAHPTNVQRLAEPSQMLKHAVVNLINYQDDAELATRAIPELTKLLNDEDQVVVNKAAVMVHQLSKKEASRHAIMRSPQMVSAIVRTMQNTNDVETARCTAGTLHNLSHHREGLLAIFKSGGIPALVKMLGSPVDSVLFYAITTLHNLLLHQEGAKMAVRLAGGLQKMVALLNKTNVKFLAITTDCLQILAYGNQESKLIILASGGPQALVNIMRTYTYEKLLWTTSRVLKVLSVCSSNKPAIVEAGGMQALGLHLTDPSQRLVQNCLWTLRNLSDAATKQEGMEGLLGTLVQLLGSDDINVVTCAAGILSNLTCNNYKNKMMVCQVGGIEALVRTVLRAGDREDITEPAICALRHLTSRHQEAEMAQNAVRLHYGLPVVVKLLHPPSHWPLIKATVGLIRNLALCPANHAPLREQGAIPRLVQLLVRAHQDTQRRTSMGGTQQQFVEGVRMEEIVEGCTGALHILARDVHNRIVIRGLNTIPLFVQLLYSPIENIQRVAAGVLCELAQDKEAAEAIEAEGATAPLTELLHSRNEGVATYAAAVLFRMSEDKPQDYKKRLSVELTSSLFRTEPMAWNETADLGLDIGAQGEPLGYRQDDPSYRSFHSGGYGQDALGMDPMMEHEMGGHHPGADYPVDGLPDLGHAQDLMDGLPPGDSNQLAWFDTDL
- ASSAY_REMARKS: Fluorescence polarization IC50 (beta-catenin / 5FAM-TCF4 10-53 competition)
- Type: binding
- EXPERIMENTAL_CONTEXT: fluorescence polarization; read-out: beta-Catenin FP IC50
REPORTED_METRIC: IC50

CC(=O)N1CCC[C@]12CC=CCCCC1(CCCC=CCCCOC(=O)N3CC[C@@](C(=O)N[C@@H](Cc4ccsc4)C(=O)N[C@@H](Cc4csc5ccccc45)C(=O)N[C@@H](CCCNC(=N)N)C(N)=O)(C3)NC(=O)[C@H](CC(N)=O)NC(=O)[C@H](Cc3ccccc3)NC(=O)[C@H](C)NC(=O)C(C)(C)NC(=O)[C@H]([C@@H](C)O)NC(=O)[C@H](CC(N)=O)NC1=O)NC(=O)[C@H](CC(C)(C)C)NC(=O)[C@H](CC(=O)O)NC2=O (some centres unmarked) = 133 nM
CC(=O)N1CCC[C@]12CC=CCCCC1(CCCC=CCCCOC(=O)N3CC[C@@](C(=O)N[C@@H](Cc4ccccc4Cl)C(=O)N[C@@H](Cc4csc5ccccc45)C(=O)N[C@@H](CC(C)C)C(N)=O)(C3)NC(=O)[C@H](CC(C)C)NC(=O)[C@H](Cc3ccccc3)NC(=O)[C@H](C)NC(=O)[C@H](C)NC(=O)[C@H](CC(=O)O)NC(=O)[C@H](CC(=O)O)NC1=O)NC(=O)[C@H](CC(C)C)NC(=O)[C@H](CC(=O)O)NC2=O (some centres unmarked) [I-1418] = 106 nM

---

- STUDY_SYSTEM: full-length beta-Catenin (Uniprot ID P35222) (Homo sapiens)
- Construct: 10 nM full-length beta-Catenin (Uniprot ID P35222)
- ASSAY_REMARKS: Fluorescence polarization IC50 (beta-catenin / 5FAM-TCF4 10-53 competition)
- Assay type: binding
- EXPERIMENTAL_CONTEXT: read-out: FP EC50
Please use 1 for IC50 under 0.2 µM and 0 for everything else, ties included.

CC(=O)N1CCC[C@]12CC=CCCCC1(CCCC=CCCCCCC[C@@](C)(C(=O)N[C@@H](Cc3ccccc3)C(=O)N[C@@H](Cc3csc4ccccc34)C(=O)N[C@@H](Cc3c[nH]cn3)C(N)=O)NC(=O)[C@H](CCC(N)=O)NC(=O)[C@H](Cc3ccccc3)NC(=O)[C@H](C)NC(=O)[C@H](C)NC(=O)[C@H](CC(=O)O)NC(=O)[C@H](CC(=O)O)NC1=O)NC(=O)[C@H](CC(C)C)NC(=O)[C@H](CC(=O)O)NC2=O (stereo partly shown) [I-561] = 1
CC(=O)N1CCC[C@]12CC=CCCCC1(CCCC=CCCCCOC(=O)N3CC[C@@](C(=O)N[C@@H](Cc4ccsc4)C(=O)N[C@@H](Cc4csc5ccccc45)C(=O)N[C@@H](CCC(N)=O)C(N)=O)(C3)NC(=O)[C@H](CC(N)=O)NC(=O)[C@H](Cc3ccccc3)NC(=O)[C@H](C)NC(=O)[C@H](C)NC(=O)[C@H](CC(=O)O)NC(=O)[C@H](CC(=O)O)NC1=O)NC(=O)[C@H](CC(C)(C)C)NC(=O)[C@H](CC(=O)O)NC2=O (stereo partly shown) [I-768] = 1
CC[C@H](C)[C@@H]1NC(=O)[C@H](CC(=O)O)NC(=O)[C@]2(CC=CCCCC3(CCCC=CCCCCCC[C@@](C)(C(=O)N[C@@H](Cc4ccccc4)C(=O)N[C@@H](Cc4csc5ccccc45)C(=O)N[C@@H](Cc4c[nH]c5ccccc45)C(N)=O)NC(=O)[C@H](CCC(N)=O)NC(=O)[C@H](Cc4ccccc4)NC(=O)[C@H](C)NC(=O)[C@H](C)NC(=O)[C@H](CCC(=O)O)NC(=O)[C@H](CC(=O)O)NC3=O)NC1=O)CCCN2C(C)=O (stereo partly shown) [I-643] = 0
CC[C@H](C)[C@@H]1NC(=O)[C@H](CC(=O)O)NC(=O)[C@]2(CC=CCCCC3(CCCC=CCCCCCC[C@@](C)(C(=O)N[C@@H](Cc4ccccc4)C(=O)N[C@@H](Cc4csc5ccccc45)C(=O)N[C@@H](CCC(N)=O)C(N)=O)NC(=O)[C@H](CCC(N)=O)NC(=O)[C@H](Cc4ccccc4)NC(=O)[C@H](C)NC(=O)[C@H](CC(C)C)NC(=O)[C@H](CCC(=O)O)NC(=O)[C@H](CC(=O)O)NC3=O)NC1=O)CCCN2C(C)=O (stereo partly shown) [I-648] = 0
CC[C@H](C)[C@@H]1NC(=O)[C@H](CC(=O)O)NC(=O)[C@]2(CC=CCCCC3(CCCC=CCCCCCC[C@@](C)(C(=O)N[C@@H](Cc4ccccc4)C(=O)N[C@@H](Cc4csc5ccccc45)C(=O)N[C@@H](CCC(N)=O)C(N)=O)NC(=O)[C@H](CCC(N)=O)NC(=O)[C@H](Cc4ccccc4)NC(=O)[C@H](C)NC(=O)[C@H](C)NC(=O)[C@H](CCC(=O)O)NC(=O)[C@H](CC(=O)O)NC3=O)NC1=O)CCCN2C(=O)Cc1ccccc1 (stereo partly shown) [I-600] = 0
CC[C@H](C)[C@@H]1NC(=O)[C@H](CC(=O)O)NC(=O)[C@]2(CC=CCCCC3(CCCC=CCCCCCC[C@@](C)(C(=O)N[C@@H](Cc4ccccc4OC)C(=O)N[C@@H](Cc4csc5ccccc45)C(=O)N[C@@H](CCC(N)=O)C(N)=O)NC(=O)[C@H](CC(N)=O)NC(=O)[C@H](Cc4ccccc4)NC(=O)[C@H](C)NC(=O)[C@H](C)NC(=O)[C@H](CC(=O)O)NC(=O)[C@H](CC(=O)O)NC3=O)NC1=O)CCCN2C(C)=O (stereo partly shown) [I-549] = 1
CC[C@H](C)[C@@H]1NC(=O)[C@H](CC(=O)O)NC(=O)[C@]2(CC=CCCCC3(CCCC=CCCCCCC[C@@](C)(C(=O)N[C@@H](Cc4ccccc4)C(=O)N[C@@H](Cc4csc5ccccc45)C(=O)N4CCC[C@H]4C(N)=O)NC(=O)[C@H](CCC(N)=O)NC(=O)[C@H](Cc4ccccc4)NC(=O)[C@H](C)NC(=O)[C@H](C)NC(=O)[C@H](CCC(=O)O)NC(=O)[C@H](CC(=O)O)NC3=O)NC1=O)CCCN2C(C)=O (stereo partly shown) = 0
CC(=O)N1CCC[C@]12CC=CCCCC1(CCCC=CCCCCCC[C@@](C)(C(=O)N[C@@H](Cc3ccccc3)C(=O)N[C@@H](Cc3csc4ccccc34)C(=O)N[C@@H](CCC(N)=O)C(N)=O)NC(=O)[C@H](CC(N)=O)NC(=O)[C@H](Cc3ccsc3)NC(=O)[C@H](C)NC(=O)[C@H](C)NC(=O)[C@H](CCC(=O)O)NC(=O)[C@H](CC(=O)O)NC1=O)NC(=O)[C@H](C)NC(=O)[C@H](CC(=O)O)NC2=O (stereo partly shown) [I-448] = 1
CC(=O)N1CCC[C@]12CC=CCCCC1(CCCC=CCCCOC(=O)N3CC[C@@](C(=O)N[C@@H](Cc4ccsc4)C(=O)N[C@@H](Cc4csc5ccccc45)C(=O)N[C@@H](Cc4c[nH]cn4)C(N)=O)(C3)NC(=O)[C@H](CCC(N)=O)NC(=O)[C@H](Cc3ccccc3)NC(=O)[C@H](C)NC(=O)[C@H](C)NC(=O)[C@H](CC(=O)O)NC(=O)[C@H](CC(=O)O)NC1=O)NC(=O)[C@H](CC(C)(C)C)NC(=O)[C@H](CC(=O)O)NC2=O (stereo partly shown) = 1
CC(=O)N1CCC[C@]12CC=CCCCC1(CCCC=CCCCCCC[C@@](C)(C(=O)N[C@@H](Cc3ccccc3)C(=O)N[C@@H](Cc3csc4ccccc34)C(=O)N[C@@H](CCC(N)=O)C(N)=O)NC(=O)[C@H]([C@@H](C)O)NC(=O)[C@H](Cc3ccccc3)NC(=O)[C@H](C)NC(=O)[C@H](C)NC(=O)[C@H](CCC(=O)O)NC(=O)[C@H](CC(=O)O)NC1=O)NC(=O)[C@H](CC(C)C)NC(=O)[C@H](CC(=O)O)NC2=O (stereo partly shown) [I-623] = 1
